These data points were gathered from paper PMC5389554.

system_under_test: GST-CNBP (isoform 1, WT) (mouse, UniProt P53996 1-178)
Sequence (P53996 whole entry, canonical isoform): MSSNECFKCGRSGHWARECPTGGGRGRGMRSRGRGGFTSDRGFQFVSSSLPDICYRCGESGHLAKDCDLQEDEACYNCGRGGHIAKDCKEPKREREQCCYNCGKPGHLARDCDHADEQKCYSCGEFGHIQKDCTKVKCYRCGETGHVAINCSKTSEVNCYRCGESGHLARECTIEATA
test_protocol: EMSA
experimental_readout: binding result

26-nt-AAATTAGT (dsDNA) DNA 1: TGTAAACAGAAATTAGTATCTCTGCC DNA 2: GGCAGAGATACTAATTTCTGTTTACA    binds
26-nt-CTGAAAAA (dsDNA) DNA 1: GGAACTAGTCTGAAAAAGAAACTAAC DNA 2: GTTAGTTTCTTTTTCAGACTAGTTCC    binds
